Test system: Vaccinia virus
PROTOCOL_NOTES: Minimal inhibitory concentration to reduce virus-induced cytopathicity against VV
Type: functional
EXPERIMENTAL_PARAMETERS: Orthopoxvirus vaccinia
Below, each entry is listed alongside its reported MIC.

Observe how each entry below is paired with its result.
OCCOCn1cnc2c(O)n3cc(-c4ccc5ccccc5c4)nc3nc21 = > 16 µg/mL
Cc1ccc(-c2cn3c(O)c4ncn(COCCO)c4nc3n2)cc1 = > 40 µg/mL
Cc1nc2nc3c(ncn3COCCO)c(O)n2c1C(c1ccccc1)(c1ccccc1)c1ccccc1 = > 16 µg/mL

Lab note: OCC(CO)OCn1cnc2c(O)n3ccnc3nc21 gave MIC of 400 µg/mL

---

Form field: MIC (one value per entry).
System: Human alphaherpesvirus 1
PROTOCOL_NOTES: Minimal inhibitory concentration to reduce virus-induced cytopathicity against Thymidine kinase deficient(TK-) HSV-1 of Acyclovir
Type: functional

Below are worked cases with known answers.
Cc1ccc(-c2cn3c(O)c4ncn(COC(CO)CO)c4nc3n2)cc1 = > 16 µg/mL
COc1ccc(-c2cn3c(O)c4ncn(COC(CO)CO)c4nc3n2)cc1 = > 16 µg/mL
O=[N+]([O-])c1ccc(-c2cn3c(O)c4ncn(COCCO)c4nc3n2)cc1 = > 16 µg/mL
O=c1c2ncn(COCCO)c2nc2n(Cc3ccccc3)c(-c3ccccc3)cn12 = > 100 µg/mL

Turning now to a further record.
MIC value, target or system Human alphaherpesvirus 1, for Cc1nc2nc3c(ncn3COCCO[Si](C)(C)C(C)(C)C)c(O)n2c1C(c1ccccc1)(c1ccccc1)c1ccccc1 : > 10 µg/mL
